Tested on: NDR2
Construct: gene STK38L
measurement-conditions: Compound Concentration (nM):1000;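 also: KINOMEscan scanMAX binding as percent activity remaining versus control; lower means stronger binding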
measured-quantity: Percent Control (%)

INSERT INTO measurements (compound, units, experimental_value) VALUES
  ('COc1ccc(COc2ccc(Cc3cnc(N)nc3N)cc2OC)cc1 [GW632580X]', '%', 86),
  ('Cl.O=C(Nc1ccc(Oc2ccc3[nH]c(NC(=O)c4ccco4)nc3c2)cc1)Nc1cc(C(F)(F)F)ccc1F [GW683134A]', '%', 76),
  ('CCc1ccc(Oc2nccc(-c3c(-c4ccc(F)cc4)ncn3C3CCNCC3)n2)cc1 [SB-242719]', '%', 96),
  ('CC(C)COC(=O)c1ccc2c(c1)/C(=C/Nc1ccc(S(N)(=O)=O)cc1)C(=O)N2 [GW416981X]', '%', 100),
  ('CN(C)c1cc2c(Nc3ccc4c(cnn4Cc4ccccc4)c3)ncnc2cn1 [GW282974X]', '%', 84),
  ('COc1cc(C=NNc2ncnc3c2cnn3-c2ccccc2)ccc1O [GW513184X]', '%', 100),
  ('Cl.O=C(O[C@H]1CN[C@H](C#Cc2cc3ncnc(Nc4ccc5c(cnn5Cc5ccccc5)c4)c3s2)C1)N1CCOCC1 [GSK200398A]', '%', 100),
  ('COc1cccc(-c2c[nH]c3c(N/N=C/c4ccncc4)ncnc23)c1 [GW814408X]', '%', 98),
  ('CCS(=O)(=O)c1ccc(OC)c(Nc2ncc(-c3cccc(OC)c3)o2)c1 [GW580509X]', '%', 100),
  ('Cc1cc(O)cc(C)c1/C=C/c1cncc(C(N)=O)c1 [GW435821X]', '%', 100),
  ('CCn1c(-c2nonc2N)nc2c(C#CC(C)(C)O)nc(OCCNC)cc21.Cl [GSK949675]', '%', 81),
  ('Cl.O=S1CCN(Cc2ccc(-c3ccc4ncnc(Nc5ccc(OCc6ccccc6)c(F)c5)c4c3)o2)CC1 [GW576924A]', '%', 100),
  ('COc1cc(/C=N/Nc2ncnc3[nH]ncc23)ccc1O [GW578748X]', '%', 100),
  ('COc1cc2ncn(-c3cc(O[C@H](C)c4ccccc4Cl)c(C(N)=O)s3)c2cc1OC [GSK237701A]', '%', 100),
  ('Cl.c1ccc(Cc2nc3ccc(Nc4ncnc5ccccc45)cc3[nH]2)cc1 [GR269666A]', '%', 100),
  ('Cl.O=C(Nc1ccc(Oc2ccc3[nH]c(NC(=O)c4ccccc4)nc3c2)cc1)Nc1cc(C(F)(F)F)ccc1F [GW709042A]', '%', 100),
  ('COc1ccc2[nH]c3c4[nH]c5ccc(OC)cc5c4c4c(c3c2c1)C(=O)NC4=O [GW296115X]', '%', 72);

###

Test system: CDK8
measurement-conditions: Compound Concentration (nM):1000
Entries and their Percent Control
measured-quantity: Percent Control (%)

INSERT INTO results (molecule, system_under_test, experimental_value) VALUES
  ('COc1ccccc1-c1cc(/C=C2\C(=O)Nc3ncc(Br)cc32)cc(Br)c1O [GW442130X]', 'CDK8', 71),
  ('COc1ccc2cc(-c3c(-c4ccncc4)nc(-c4ccc(S(C)(=O)=O)cc4C)n3C)ccc2c1 [SB-633825]', 'CDK8', 78),
  ('CCn1c(-c2nonc2N)nc2c(C#CC(C)(C)O)nc(OCCNC)cc21.Cl [GSK949675]', 'CDK8', 100),
  ('CN1CCN(C(=O)c2ccc(NC(=O)Nc3ccc(N(C)c4ccnc(Nc5ccc(CS(C)(=O)=O)cc5)n4)cc3)cc2)CC1.Cl [GW830263A]', 'CDK8', 85),
  ('NS(=O)(=O)c1ccc(N/N=C2\C(=O)Nc3ccc(-c4cnco4)cc32)cc1 [GW276655]', 'CDK8', 100),
  ('COc1cc(C)c(N(C)C(=O)CN(C)C)cc1Nc1nc(Nc2cccc(F)c2C(N)=O)c2cc[nH]c2n1 [GSK2219385]', 'CDK8', 100);

Taken from paper PMC7826789.
